Biological target: SaSiaT (sodium sialic acid symporter) (Staphylococcus aureus, UniProt A0A0H2XJ46)
Construct: gene SAUSA300_0314; recombinant SaSiaT, GFP-tag cleaved with HRV3C protease, purified in DDM
Sequence (A0A0H2XJ46 entry or part of it): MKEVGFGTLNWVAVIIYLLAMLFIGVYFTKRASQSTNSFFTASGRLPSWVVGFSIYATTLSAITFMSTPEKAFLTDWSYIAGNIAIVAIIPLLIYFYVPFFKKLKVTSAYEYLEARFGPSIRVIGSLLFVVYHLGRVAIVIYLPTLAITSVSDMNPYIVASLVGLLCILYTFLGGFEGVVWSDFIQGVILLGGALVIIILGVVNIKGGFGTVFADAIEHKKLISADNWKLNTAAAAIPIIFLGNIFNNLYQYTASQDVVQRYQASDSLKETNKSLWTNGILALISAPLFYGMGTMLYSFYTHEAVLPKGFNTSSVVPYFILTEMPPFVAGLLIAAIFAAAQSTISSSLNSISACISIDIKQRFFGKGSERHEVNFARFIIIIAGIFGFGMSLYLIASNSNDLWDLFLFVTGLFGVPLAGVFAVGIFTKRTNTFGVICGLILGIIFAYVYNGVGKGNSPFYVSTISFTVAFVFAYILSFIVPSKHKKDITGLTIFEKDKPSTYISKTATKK
Test: isothermal titration calorimetry (n = […]); microscale thermophoresis gives Kd =[…]; proteoliposome transport KM […]
Type: binding
reported property: Kd (µM)

> print(dat)
                                   compound  reported.property  readout.value
1  CC(=O)N[C@H]1[C@H]([C@H](O)[C@H](O)CO)OC(O)(C(=O)O)C[C@@H]1O (stereo partly shown)                 Kd            106
